molecular target: CD4-gp140-D1 complex (HIV 89.6 gp140 bound to sCD4 and the CCR5-D1 peptide) (HIV 89.6 (Clade B) primary isolate; human), Q73372; assay: SPR, row CD4+gp140+R5-D1 (89.6 gp140)
observed_property: Kd (nM)
Dear colleague, please return just the value in nM, with no unit written.

Query :: Report Kd for WMEWDREINNYTSLIHSLIEESQNQLEKNEQELLEL (modifications not checked) [HR-2 peptide T649Q26L] please.
Result :: 1000
